B1: NR2F2 (parent)
chain: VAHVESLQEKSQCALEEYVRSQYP

Variants of: B1
Assay: protein stability index of a GFP-peptide fusion (GPS, HEK-293T) (PSI 1-6); higher = more stable;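 also: lentivirally expressed fusions sorted by FACS into six bins by GFP to DsRed ratio, PSI derived from sequencing read proportions per bin multiplied by bin number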
Settings: c terminus: a fixed tail appended
Please map values of protein stability index to classes as shown: lo (below 3), med (3 to below 4), hi (4 or more)

Problem: Which band does VAHVESLQEISQCALEEYVRSQYP [K10I] fall in?
Result: lo

Problem: Which band does VAHVESLQYKSQCALEEYVRSQYP [E9Y] fall in?
Result: lo

Problem: Which band does VAHVESLQEKSQCALEEYVRRQYP [S21R] fall in?
Result: med

Problem: Which band does VATVESLQEKSQCALEEYVRSQYP [H3T] fall in?
Result: med

Problem: Which band does VAHYESLQEKSQCALEEYVRSQYP [V4Y] fall in?
Result: lo

Problem: Which band does VAHVESLQEKNQCALEEYVRSQYP [S11N] fall in?
Result: med

Problem: Which band does VAHVESLQEKSQCALEEYVWSQYP [R20W] fall in?
Result: lo

Problem: Which band does VAHVESLQEKSQCALEEYVRSIYP [Q22I] fall in?
Result: lo

Problem: Which band does VAHVESLQEKSTCALEEYVRSQYP [Q12T] fall in?
Result: lo

Problem: Which band does VAHVESLQEKSQWALEEYVRSQYP [C13W] fall in?
Result: med

Problem: Which band does VAHVESLSEKSQCALEEYVRSQYP [Q8S] fall in?
Result: med

Problem: Which band does VAYVESLQEKSQCALEEYVRSQYP [H3Y] fall in?
Result: lo

Problem: Which band does VAHVESLQEKSQCALEEYVESQYP [R20E] fall in?
Result: hi

Problem: Which band does VAHVESLQEKSQYALEEYVRSQYP [C13Y] fall in?
Result: med

Problem: Which band does VAHVESLQFKSQCALEEYVRSQYP [E9F] fall in?
Result: lo

Problem: Which band does VAHVESLQESSQCALEEYVRSQYP [K10S] fall in?
Result: med

Problem: Which band does VAHVESLQEKSQCADEEYVRSQYP [L15D] fall in?
Result: hi

Problem: Which band does VAHVESLQLKSQCALEEYVRSQYP [E9L] fall in?
Result: lo

Problem: Which band does VAHVESLQEKSQCALEEYVQSQYP [R20Q] fall in?
Result: hi

Problem: Which band does VAHVESLQEKSQCALEEYERSQYP [V19E] fall in?
Result: hi

Problem: Which band does VAHVESLQEKSQCAGEEYVRSQYP [L15G] fall in?
Result: hi

Problem: Which band does VAHVESLQEKSQCALEEYVRSQSP [Y23S] fall in?
Result: hi

Problem: Which band does VAHVERLQEKSQCALEEYVRSQYP [S6R] fall in?
Result: med

Problem: Which band does VAHVESLQEKSQCALTEYVRSQYP [E16T] fall in?
Result: med

Problem: Which band does VAHVESLQEKSQCALEEYVGSQYP [R20G] fall in?
Result: hi

Problem: Which band does VAHVESLQEKSQCALEEYVRMQYP [S21M] fall in?
Result: med

Problem: Which band does VAHVESLQEKSQCALEEYVVSQYP [R20V] fall in?
Result: med

Problem: Which band does VAIVESLQEKSQCALEEYVRSQYP [H3I] fall in?
Result: lo

Problem: Which band does VAHVEGLQEKSQCALEEYVRSQYP [S6G] fall in?
Result: med

Problem: Which band does VAHVESLQEKSQCELEEYVRSQYP [A14E] fall in?
Result: hi

Problem: Which band does VAHEESLQEKSQCALEEYVRSQYP [V4E] fall in?
Result: hi

Problem: Which band does VAHVESLQEKSQCALEEYVRSGYP [Q22G] fall in?
Result: med

Problem: Which band does VAHVESLQECSQCALEEYVRSQYP [K10C] fall in?
Result: lo

Problem: Which band does VALVESLQEKSQCALEEYVRSQYP [H3L] fall in?
Result: lo

Problem: Which band does VSHVESLQEKSQCALEEYVRSQYP [A2S] fall in?
Result: med

Problem: Which band does VAHVESNQEKSQCALEEYVRSQYP [L7N] fall in?
Result: hi

Problem: Which band does VAHVESLQEKHQCALEEYVRSQYP [S11H] fall in?
Result: med

Problem: Which band does VAHVESLQEKSLCALEEYVRSQYP [Q12L] fall in?
Result: lo

Problem: Which band does VAHVESLQEKSQAALEEYVRSQYP [C13A] fall in?
Result: hi

Problem: Which band does VYHVESLQEKSQCALEEYVRSQYP [A2Y] fall in?
Result: med

Problem: Which band does VAHVESLQEKSQCALEEYVYSQYP [R20Y] fall in?
Result: med

Problem: Which band does VAHVCSLQEKSQCALEEYVRSQYP [E5C] fall in?
Result: lo

Problem: Which band does VAHVESLQEKSQCALEEYVRSQYA [P24A] fall in?
Result: med

Problem: Which band does VAHVESLQEKSQCALEEYVRSQGP [Y23G] fall in?
Result: hi

Problem: Which band does VAHVESLQEASQCALEEYVRSQYP [K10A] fall in?
Result: med

Problem: Which band does VAHVESLQEKSQCANEEYVRSQYP [L15N] fall in?
Result: hi

Problem: Which band does VAHVESLQEKSQCALEMYVRSQYP [E17M] fall in?
Result: lo

Problem: Which band does VAHVESLQAKSQCALEEYVRSQYP [E9A] fall in?
Result: lo

Problem: Which band does VAHVESLQEESQCALEEYVRSQYP [K10E] fall in?
Result: hi

Problem: Which band does WAHVESLQEKSQCALEEYVRSQYP [V1W] fall in?
Result: med

Problem: Which band does VAHVESLQEKRQCALEEYVRSQYP [S11R] fall in?
Result: med

Problem: Which band does VAHVESLQEKSQCALEEYVRSSYP [Q22S] fall in?
Result: med

Problem: Which band does VAHVESLQEKSQCALEEYRRSQYP [V19R] fall in?
Result: med

Problem: Which band does VAHMESLQEKSQCALEEYVRSQYP [V4M] fall in?
Result: med

Problem: Which band does VAHVESLQEVSQCALEEYVRSQYP [K10V] fall in?
Result: med

Problem: Which band does VAFVESLQEKSQCALEEYVRSQYP [H3F] fall in?
Result: lo

Problem: Which band does VAHVESLQEKSQCALEEYGRSQYP [V19G] fall in?
Result: med

Problem: Which band does VAHVESLQEKSQCALELYVRSQYP [E17L] fall in?
Result: lo

Problem: Which band does VAHVESLQEKSQCALEDYVRSQYP [E17D] fall in?
Result: med

Problem: Which band does VAHVESLQEKSQCAREEYVRSQYP [L15R] fall in?
Result: hi

Problem: Which band does VAHVISLQEKSQCALEEYVRSQYP [E5I] fall in?
Result: lo

Problem: Which band does VAHVESLQEKSQCALEAYVRSQYP [E17A] fall in?
Result: lo

Problem: Which band does VAHVESLQEKSQCALEEYVLSQYP [R20L] fall in?
Result: lo

Problem: Which band does VAHVESLQRKSQCALEEYVRSQYP [E9R] fall in?
Result: lo

Problem: Which band does VAHVESLQEKSQCALEEYVRCQYP [S21C] fall in?
Result: med

Problem: Which band does VAHVESLQEKSQEALEEYVRSQYP [C13E] fall in?
Result: hi

Problem: Which band does VAHVESLQEKSQCALEEYCRSQYP [V19C] fall in?
Result: med

Problem: Which band does VAHVESLQEKSQCALSEYVRSQYP [E16S] fall in?
Result: med

Problem: Which band does VAHVESLQEKSQQALEEYVRSQYP [C13Q] fall in?
Result: hi

Problem: Which band does VAHVASLQEKSQCALEEYVRSQYP [E5A] fall in?
Result: med

Problem: Which band does VAHVESLQEKSQCALHEYVRSQYP [E16H] fall in?
Result: med

Problem: Which band does VAHVESLQEKSQCDLEEYVRSQYP [A14D] fall in?
Result: hi
